Cited source: ChEMBL document CHEMBL1926656

- assayed_target: 11-beta-hydroxysteroid dehydrogenase 1 (Homo sapiens)
- Sequence (P28845 whole entry): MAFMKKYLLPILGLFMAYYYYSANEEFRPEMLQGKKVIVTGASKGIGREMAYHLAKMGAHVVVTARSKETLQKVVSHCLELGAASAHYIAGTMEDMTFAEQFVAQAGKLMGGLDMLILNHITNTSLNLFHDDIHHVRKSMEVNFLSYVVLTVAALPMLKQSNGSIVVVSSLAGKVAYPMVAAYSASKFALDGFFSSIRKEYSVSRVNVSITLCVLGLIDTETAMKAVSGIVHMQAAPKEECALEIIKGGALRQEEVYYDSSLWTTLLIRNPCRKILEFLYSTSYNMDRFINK
- assay_notes: Inhibition of human 11beta-HSD1 expressed in human HEK293 cells assessed as conversion of [3H]cortisone to [3H]cortisol by scintillation proximity assay
pIC50: −log10 of the molar value.
quantity: pIC50

a. CC1(C)[C@@H](O[C@H]2O[C@H](C(=O)O)[C@@H](O)[C@H](O)[C@H]2O[C@@H]2O[C@H](C(=O)O)[C@@H](O)[C@H](O)[C@H]2O)CC[C@]2(C)[C@H]3C(=O)C=C4[C@@H]5C[C@@](C)(C(=O)O)CC[C@]5(C)CC[C@@]4(C)[C@]3(C)CC[C@@H]12
b. CC(C)[C@H](NC(=O)[C@H](C)N(C)C)C(=O)N1CC[C@@H]2Oc3ccc(cc3)/C=C\NC(=O)[C@H](Cc3ccccc3)NC(=O)[C@H]21
Exam item: Pick one: a or b . Which one has the lower reported pIC50? Your choice should be expressed through its label.
Marked response: b
(b: 4.04, a: 7.73)
